Values from patent US10975077B2

- System: HBV (encapsidated HBV DNA, HepG2.2.15 cells)
- protocol: HBV replication inhibition assay, BDNA assay in HepG2.2.15 cells
- Type: cell-based
- assay_setup: Hepatitis B virus, HepG2.2.15, Activity in BDNA-assay
Here, each record is paired with measured EC50 data.

{"compound": "C[C@@H]1Cc2nn3c(c2CN1C(=O)Nc1cc(Cl)c(F)cc1F)C(=O)N(C)CC(CO)C3 (single isomer, unassigned)", "target": "HBV (encapsidated HBV DNA, HepG2.2.15 cells)", "EC50": "1 to 100 nM"}
{"compound": "CN1CC(CNCC(F)F)Cn2nc3c(c2C1=O)CN(C(=O)Nc1ccc(F)c(C#N)c1)CC3 (single isomer, unassigned) [Compound 118_E2]", "target": "HBV (encapsidated HBV DNA, HepG2.2.15 cells)", "EC50": "1 to 100 nM"}
{"compound": "CN1CCC(CO)n2nc3c(c2C1=O)CN(C(=O)Nc1ccc(F)c(Cl)c1)CC3 (stereo not shown)", "target": "HBV (encapsidated HBV DNA, HepG2.2.15 cells)", "EC50": "1 to 100 nM"}
{"compound": "C[C@@H]1Cc2nn3c(c2CN1C(=O)Nc1ccc(F)c(C#N)c1)C(=O)N(C)CC1(CC(F)C1)C3 (stereo partly shown)", "target": "HBV (encapsidated HBV DNA, HepG2.2.15 cells)", "EC50": "1 to 100 nM"}
{"compound": "CN1C(=O)c2c3c(nn2CCC1(C)C(=O)O)CCN(C(=O)Nc1ccc(F)c(Cl)c1)C3 (stereo not shown)", "target": "HBV (encapsidated HBV DNA, HepG2.2.15 cells)", "EC50": "> 1000 nM"}
{"compound": "C[C@@H]1Cc2nn3c(c2CN1C(=O)Nc1cc(Cl)c(F)cc1Br)C(=O)N(CC(F)F)CCC3", "target": "HBV (encapsidated HBV DNA, HepG2.2.15 cells)", "EC50": "1 to 100 nM"}
{"compound": "CN1CC(CO)(CC(F)F)Cn2nc3c(c2C1=O)CN(C(=O)Nc1ccc(F)c(Cl)c1)CC3 (stereo not shown)", "target": "HBV (encapsidated HBV DNA, HepG2.2.15 cells)", "EC50": "100 to 500 nM"}
{"compound": "CN1CC(CNCC(F)(F)F)Cn2nc3c(c2C1=O)CN(C(=O)Nc1ccc(F)c(C#N)c1)CC3 (stereo not shown)", "target": "HBV (encapsidated HBV DNA, HepG2.2.15 cells)", "EC50": "1 to 100 nM"}
{"compound": "CN1CC(C(F)F)Cn2nc3c(c2C1=O)CN(C(=O)Nc1ccc(F)c(Cl)c1)CC3 (stereo not shown)", "target": "HBV (encapsidated HBV DNA, HepG2.2.15 cells)", "EC50": "1 to 100 nM"}
{"compound": "CN1CC(CN2CCOCC2)Cn2nc3c(c2C1=O)CN(C(=O)Nc1ccc(F)c(Cl)c1)CC3 (stereo not shown)", "target": "HBV (encapsidated HBV DNA, HepG2.2.15 cells)", "EC50": "1 to 100 nM"}
{"compound": "CN1CC(CN)Cn2nc3c(c2C1=O)CN(C(=O)Nc1ccc(F)c(C(F)(F)F)c1)CC3 (stereo not shown)", "target": "HBV (encapsidated HBV DNA, HepG2.2.15 cells)", "EC50": "100 to 500 nM"}
{"compound": "C[C@@H]1Cc2nn3c(c2CN1C(=O)Nc1ccc(F)c(Br)c1)C(=O)N(C)CC(CO)C3 (single isomer, unassigned)", "target": "HBV (encapsidated HBV DNA, HepG2.2.15 cells)", "EC50": "1 to 100 nM"}
{"compound": "CCCC(O)C1CN(C)C(=O)c2c3c(nn2C1)CCN(C(=O)Nc1ccc(F)c(Cl)c1)C3 (stereo not shown)", "target": "HBV (encapsidated HBV DNA, HepG2.2.15 cells)", "EC50": "1 to 100 nM"}
{"compound": "CC(=O)NCC1CN(C)C(=O)c2c3c(nn2C1)CCN(C(=O)Nc1ccc(F)c(Cl)c1)C3 (stereo not shown)", "target": "HBV (encapsidated HBV DNA, HepG2.2.15 cells)", "EC50": "1 to 100 nM"}
{"compound": "C[C@@H]1Cc2nn3c(c2CN1C(=O)Nc1ccc(F)c(C(F)(F)F)c1)C(=O)N(C)CC(F)C3 (single isomer, unassigned)", "target": "HBV (encapsidated HBV DNA, HepG2.2.15 cells)", "EC50": "1 to 100 nM"}
{"compound": "CN1CC(F)Cn2nc3c(c2C1=O)CN(C(=O)Nc1cc(Cl)c(F)cc1F)CC3 (stereo not shown)", "target": "HBV (encapsidated HBV DNA, HepG2.2.15 cells)", "EC50": "1 to 100 nM"}
{"compound": "CN1CC([S+](C)[O-])Cn2nc3c(c2C1=O)CN(C(=O)Nc1ccc(F)c(Cl)c1)CC3 (single isomer, unassigned) [Compound 026A]", "target": "HBV (encapsidated HBV DNA, HepG2.2.15 cells)", "EC50": "> 1000 nM"}
{"compound": "CNCC1CN(C)C(=O)c2c3c(nn2C1)CCN(C(=O)Nc1ccc(F)c(C(F)(F)F)c1)C3 (stereo not shown)", "target": "HBV (encapsidated HBV DNA, HepG2.2.15 cells)", "EC50": "100 to 500 nM"}
{"compound": "C=C1CN(C)C(=O)c2c3c(nn2C1)CCN(C(=O)Nc1ccc(F)c(Cl)c1)C3", "target": "HBV (encapsidated HBV DNA, HepG2.2.15 cells)", "EC50": "1 to 100 nM"}
{"compound": "C[C@@H]1Cc2nn3c(c2CN1C(=O)Nc1ccc(F)c(C(F)(F)F)c1)C(=O)N(CC(F)F)CCC3", "target": "HBV (encapsidated HBV DNA, HepG2.2.15 cells)", "EC50": "1 to 100 nM"}
{"compound": "CN1CC(CN2CCC(F)(F)C2)Cn2nc3c(c2C1=O)CN(C(=O)Nc1ccc(F)c(C#N)c1)CC3 (stereo not shown)", "target": "HBV (encapsidated HBV DNA, HepG2.2.15 cells)", "EC50": "100 to 500 nM"}
{"compound": "CN1CC(CNCC(F)F)Cn2nc3c(c2C1=O)CN(C(=O)Nc1ccc(F)c(C#N)c1)CC3 (single isomer, unassigned) [Compound 118_E1]", "target": "HBV (encapsidated HBV DNA, HepG2.2.15 cells)", "EC50": "100 to 500 nM"}
{"compound": "C[C@@H]1Cc2nn3c(c2CN1C(=O)Nc1ccc(F)c(C(F)(F)F)c1)C(=O)N(C)CC(C)(C)C3", "target": "HBV (encapsidated HBV DNA, HepG2.2.15 cells)", "EC50": "1 to 100 nM"}
{"compound": "C[C@@H]1Cc2nn3c(c2CN1C(=O)Nc1ccc(F)c(Cl)c1)C(=O)N(C)CC(C)(F)C3 (single isomer, unassigned)", "target": "HBV (encapsidated HBV DNA, HepG2.2.15 cells)", "EC50": "1 to 100 nM"}
{"compound": "CN1CC(F)Cn2nc3c(c2C1=O)CN(C(=O)Nc1cc(Br)c(F)cc1F)CC3 (stereo not shown)", "target": "HBV (encapsidated HBV DNA, HepG2.2.15 cells)", "EC50": "1 to 100 nM"}
{"compound": "CN1CC(CN2CCC(F)(F)C2)Cn2nc3c(c2C1=O)CN(C(=O)Nc1ccc(F)c(C(F)(F)F)c1)CC3 (stereo not shown)", "target": "HBV (encapsidated HBV DNA, HepG2.2.15 cells)", "EC50": "100 to 500 nM"}
{"compound": "CN1CC(N2CCCC2)Cn2nc3c(c2C1=O)CN(C(=O)Nc1ccc(F)c(Cl)c1)CC3 (stereo not shown)", "target": "HBV (encapsidated HBV DNA, HepG2.2.15 cells)", "EC50": "1 to 100 nM"}
{"compound": "CN1CC(F)(F)Cn2nc3c(c2C1=O)CN(C(=O)Nc1ccc(F)c(Cl)c1)CC3", "target": "HBV (encapsidated HBV DNA, HepG2.2.15 cells)", "EC50": "1 to 100 nM"}
